Assay: aqueous solubility
Assay type: physicochemical
Settings: aqueous medium; at about room temperature
Protocol: Unfortunately, (2R)-2-[[(4-chlorophenyl)sulfonyl][[2-fluoro-4-(1,2,4-oxadiazol-3-yl)phenyl]methyl]amino]-5,5,5-trifluoropentanamide has poor aqueous solubility that is often characterized as <1 ug/mL at about room temperature. […] Thus, it now appears that in order to provide optimal exposure of the API, an amorphous (non-crystalline) form of the active compound should be provided.
Metric: solubility

Need solubility, item NC(=O)[C@@H](CCC(F)(F)F)N(Cc1ccc(-c2ncon2)cc1F)S(=O)(=O)c1ccc(Cl)cc1 < 1 µg/mL
